Target: T1, human HER3/ErbB3 extracellular domain (human, UniProt P21860 20-643)
T1 construct: extracellular domain; the range 1-643 of M34309 is printed only for the immunogen; also called Human HER3 ECD; recombinant human HER3
T1 sequence (P21860 20-643): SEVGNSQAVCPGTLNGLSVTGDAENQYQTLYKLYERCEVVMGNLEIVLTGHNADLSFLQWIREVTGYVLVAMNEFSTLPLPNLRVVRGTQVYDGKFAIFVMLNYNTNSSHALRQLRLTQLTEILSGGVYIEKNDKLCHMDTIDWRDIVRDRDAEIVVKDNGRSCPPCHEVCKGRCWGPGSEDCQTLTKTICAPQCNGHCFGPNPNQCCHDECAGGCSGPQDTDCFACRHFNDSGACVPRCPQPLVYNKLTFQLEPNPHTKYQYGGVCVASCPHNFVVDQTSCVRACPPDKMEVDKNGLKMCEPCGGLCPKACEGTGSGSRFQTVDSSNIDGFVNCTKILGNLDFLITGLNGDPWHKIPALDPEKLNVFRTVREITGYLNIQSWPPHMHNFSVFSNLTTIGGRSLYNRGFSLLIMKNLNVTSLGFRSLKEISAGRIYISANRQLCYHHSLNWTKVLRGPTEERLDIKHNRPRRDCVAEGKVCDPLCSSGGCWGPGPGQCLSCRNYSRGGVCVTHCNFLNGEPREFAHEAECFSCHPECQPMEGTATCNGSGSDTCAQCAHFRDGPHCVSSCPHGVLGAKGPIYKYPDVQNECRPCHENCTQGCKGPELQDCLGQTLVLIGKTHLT
Assay: SPR, Biacore T-100, HER3 ECD
Can you tell me kon for the items I'm about to list?
Answers are plain numbers, in M⁻¹ s⁻¹.

Here's what some known entries look like.
# Binder, Measurement unit, kon
measured = [
    ("Chi46 (antibody, V domains shown, also called parental rabbit/human Fc chimera of Rab46) VH: EEQLVESGGGLVQPEGSLTLTCTASGFSFSASYYIYWVRQAPGKGLEGIAYITGDDDKRTYYANWAKGRFTISKTSTTVTLQMTSLTAADTATYFCTRNLPDELWGPGTLVTVSS VL: QAVVTQTPSSVSAAVGGTVTISCQSSESVYSYKNLAWYQQKPGQPPRLLIWQASRLSSGVSSRFSGSGSGTQFTLTISGVQCDDAATYYCQGTYYSSAWDFVFGGGTEVMVE", "M⁻¹ s⁻¹", 138000),
    ("HER3-hMab-A10 (antibody, V domains shown) VH: QVQLVESGGGLVQPGGSLRLSCSASGFSFSASYYIYWVRQAPGKGLEYIAYITGDDDKRTYYANWAKGRFTISRDTSKNTVYLQMNSLRAEDTAVYYCTRNLPDELWGPGTLVTVSS VL: DIQMTQTPSTLSASVGDRVTITCQSSESVYSYKNLAWYQQKPGKPPKLLIWQASRLSSGVPSRFSGSGSGTEFTLTISSLQPDDFATYYCQGTYYSSAWDFVFGGGTKVEIK", "M⁻¹ s⁻¹", 141000),
]

Consider now this further binder.
Problem: // kon lookup, key: Chi1210 (antibody, V domains shown, also called parental rabbit/human Fc chimera of Rab1210) VH: QEQLEESGGGLVQPEGSLTLTCTASGFSFSSSYWICWVRQAPGKGLELIGYIWSGNGATYYASWAKGRFTISKTSSTTVTLQMTSVTATDTATYFCARNYDASGYGIFHLWGPGTLVTVSS VL: AVVMTQTPASVSAAVGGTVTINCQASQSIVSSYLSWYQQKTGQPPKLLIYSASKLASGVPPRFSGSGSGTQFTLTISGVQCDDAATYYCLYGVDSSNIDNAFGGGTEVVVK
Result: 538000
